Recorded values, source PubChem BioAssay (NCI).

test system: ACHN renal; test: NCI tumour cell line growth inhibition, 48 h
Where a SMILES comes first, the peptide text is derived from it. Bridges are numbered along the chain shown (N, C = ends). Roman numbers before positions name the chains, in order. [ ]: non-standard residue; d: D form. The star is where a group is joined. Quinoxaline2carbonyl = O=C(c1cnc2ccccc2n1)*; NMeV = CN[CH](C(=O)O)C(C)C; NMeC = CN[CH](CS)C(=O)O
Would you kindly list TGI for each of these compounds?

{"columns": ["Compound", "TGI"],
 "data": [
  ["CC(C)(C)CN1CCn2c(nc3c(N)nccc32)S1", "> 100 µM"]
]}

State recorded TGI for all listed compounds.
1. CNS(=O)(=O)NNS(=O)(=O)c1ccc(Cl)cc1
2. C=C1CCC2[C@@H](CCC3[C@]2(C)CCC[C@]3(C)C(=O)OC)[C@@H]1CC=O (some centres not stated)
3. CCC1(COC(NC(=O)c2ccccc2)(C(F)(F)F)C(F)(F)F)COC1
4. CC(C)[C@@H]1ON1C(C)c1ccccc1 (some centres not stated)
5. Cc1cc2c(c(C(=O)O)c1C)-c1cccc(F)c1C2=O
6. CC1NC(=O)C(NC(=O)c2cnc3ccccc3n2)COC(=O)C(C(C)C)N(C)C(=O)C2CSSCC(C(=O)N(C)C(C(C)C)C(=O)OCC(NC(=O)c3cnc4ccccc4n3)C(=O)NC(C)C(=O)N2C)N(C)C1=O (configuration not stated) (I: Quinoxaline2carbonyl-SA[NMeC][NMeV] / II: Quinoxaline2carbonyl-SA[NMeC][NMeV]; ester I:1-II:C, I:C-II:1; disulfide I:3-II:3; configuration not given here)

1. > 100 µM
2. 82 µM
3. > 100 µM
4. > 100 µM
5. > 100 µM
6. 11.9 µM

Provide TGI values for the following items, in order.
1. COc1ccc2c(c1OC)C(=O)OC2C1c2c(c([N+](=O)[O-])c3c(c2OC)OCO3)CCN1C (configuration not stated)
2. Cc1csc2nc(-c3ccc(Cl)c([N+](=O)[O-])c3)c(/C=N/N=C(N)N)n12
3. CCNC1=C(NC(=O)CC)C(=O)c2ccccc2C1=O
4. CCN(CC)CCNCc1cc(Cl)cc2c1OCOC2
5. CCC(c1c[nH]c2ccc(Br)cc12)c1c[nH]c2ccc(Br)cc12

1. > 100 µM
2. 2.94 µM
3. > 100 µM
4. > 10 µM
5. 12.8 µM
